system: rodent lifetime carcinogenesis bioassay, tumor incidence TD50; experiment: carcinogenic potency in animals, long-term in vivo studies, CPDB compilation (AID 1745844); details: mouse; strain B6C3F1; males; inhaled; site: any site (literature study); lesion: several types; types named in the paper; dosed 52 weeks; study length 104 weeks
Measure name: TD50
Output should be the measured figure followed by the unit it is expressed in.

Request: Fill in the blank: the reported TD50 of `C=CC=C` is ____.
Result: 5.84 mg/kg/day

* * *

tested on: rodent lifetime carcinogenesis bioassay, tumor incidence TD50; experiment: carcinogenic potency in animals, long-term in vivo studies, CPDB compilation (AID 1745844); conditions: hamster; strain Syrian Golden; males; inhaled; site: any site (literature study); lesion: benign tumor; dosed 78 weeks; study length 130 weeks
The source made the active and inactive calls. How the calls were made is not given here.
Measure name: TD50

Request: Would you kindly share the measured TD50 for `ClC=C(Cl)Cl` ?
Result: 5640 mg/kg/day (inactive)

* * *

test system: rodent lifetime carcinogenesis bioassay, tumor incidence TD50; assay: carcinogenic potency in animals, long-term in vivo studies, CPDB compilation (AID 1745844); conditions: hamster; strain Syrian Golden; males; in feed; site: urinary bladder; lesion: squamous-cell carcinoma; dosed 48 weeks; study length 70 weeks
Provide the reported TD50 of each item.

Please state TD50 for every molecule in the list that follows.
1. CC(=O)Nc1nc(-c2ccc([N+](=O)[O-])o2)cs1
2. O=CNc1nc(-c2ccc([N+](=O)[O-])o2)cs1

Result:
["60.2 mg/kg/day", "54 mg/kg/day"]

* * *

system: rodent lifetime carcinogenesis bioassay, tumor incidence TD50; experiment: carcinogenic potency in animals, long-term in vivo studies, CPDB compilation (AID 1745844); settings: rat; strain ACI; males; in feed; site: adrenal gland; lesion: pheochromocytoma; dosed 77 weeks; study length 77 weeks
Activity calls are given as the source filed them. How the calls were made is not given here.
Measure name: TD50

Request: Kindly state the measured TD50 obtained for `O=c1c(O)c(-c2ccc(O)c(O)c2)oc2cc(O)cc(O)c12` with rodent lifetime carcinogenesis bioassay, tumor incidence TD50.
Result: 7130 mg/kg/day (inactive)

* * *

tested on: rodent lifetime carcinogenesis bioassay, tumor incidence TD50; assay: carcinogenic potency in animals, long-term in vivo studies, CPDB compilation (AID 1745844); settings: rat; strain Fischer 344; males; in feed; site: thyroid gland; lesion: c-cell carcinoma; dosed 104 weeks; study length 104 weeks
Measure name: TD50

Request: Request the reported TD50 associated with `[Cl][Sn][Cl]`
Result: 405 mg/kg/day

* * *

test system: rodent lifetime carcinogenesis bioassay, tumor incidence TD50; test: carcinogenic potency in animals, long-term in vivo studies, CPDB compilation (AID 1745844); details: mouse; strain B6C3F1; males; inhaled; site: all sites + forestomach + heart + lung; lesion: malignant lymphoma, NOS + papilloma, NOS + squamous-cell papilloma + hemangiosarcoma + alveolar/bronchiolar adenoma + alveolar/bro; dosed 60 weeks; study length 60 weeks
Measure name: TD50 (mg/kg/day)
Numbers only, in mg/kg/day.

Request: I am curious: what TD50 value has been reported for `C=CC=C` ?
Result: 28.8

* * *

tested on: rodent lifetime carcinogenesis bioassay, tumor incidence TD50; assay: carcinogenic potency in animals, long-term in vivo studies, CPDB compilation (AID 1745844); settings: rat; strain Long-Evans; males; in feed; site: liver; lesion: hepatocellular adenoma; dosed 78 weeks; study length 104 weeks
Active and inactive are the calls of the source. How the calls were made is not given here.
Measure name: TD50

Request: Tell me the measured TD50 of CC(C)NCC(O)c1ccc(NS(C)(=O)=O)cc1 (stereo unspecified) , please.
Result: 309000 mg/kg/day (inactive)
